# Tested on: Fibroblast
# Assay procedure: Incucyte cell viability with human fibroblast; note: unitless GR value; below 1 slowed growth and below 0 cell loss
# Format: toxicity, cell-based
# Conditions used: 24 h, 10 µM, compound concentration 10 uM, replicate number 1
Mark 0 for Growth Rate values under 0.8, and 1 for everything at or above.

{"columns": ["Compound", "Category"],
 "data": [
  ["CC#CC(=O)N1CCN(c2nc(-c3ccc(Oc4ccccc4)cc3)c(C(N)=O)s2)CC1", 0]
]}

Data request: Is Growth Rate for CN(C)C/C=C/C(=O)Nc1cccc(S(=O)(=O)N2CCC(NC(=O)c3n[nH]cc3NC(=O)c3c(Cl)cc(Cl)cc3Cl)CC2)c1 at or above 0.8?
Data returned: 0

Data request: Is Growth Rate for Cc1ccc(-n2nc(C(C)(C)C)cc2NC(=O)Nc2ccccc2F)cc1 at or above 0.8?
Data returned: 1

Data request: Is Growth Rate for Cc1nc(Nc2cnn(C3CCNCC3)c2)nc2c1N(C)C(=O)c1cc3ccccc3cc1N2C at or above 0.8?
Data returned: 0

Data request: Is Growth Rate for CCn1ccc(Nc2ncc3c(n2)-c2c(nn(C)c2-c2ccc(-c4cnn(C)c4)cc2Cl)CC3)n1 at or above 0.8?
Data returned: 0
